- System: MCF7 breast
- PROCEDURE_TEXT: NCI tumour cell line growth inhibition, 48 h
Reported TGI is given for each of the following compounds.

These solved cases illustrate the format of a correct answer.
compound=COc1ccccc1C(=O)c1ccc2ccccc2c1 measured_value="> 100 µM"
compound=COc1ccc2c(-c3cc4ccccc4o3)cc(=O)oc2c1 measured_value="> 100 µM"
compound=CNc1nc(NC2CCCC2)nc(Sc2ccc(OC)cc2)n1 measured_value="> 10 µM"
compound="CCOC(=O)C(C)NC(=O)N(C)C12CC3CC(CC(C3)C1)C2 (centres undefined)" measured_value="395 µM"
compound=NS(=O)(=O)c1nnc(NSc2ccc([N+](=O)[O-])cc2)s1 measured_value="> 100 µM"
compound=CN(C)c1nc(=NCc2ccccn2)ss1 measured_value="> 10 µM"
compound=Cc1noc(C)c1-c1ccc2[nH]c(=O)n3c2c1OC[C@@H]3c1ccccn1 measured_value="> 100 µM"
compound=CCOC(=O)c1csc(NC(=O)CCCC#N)n1 measured_value="> 100 µM"
compound="OC(c1ccco1)C(F)(F)c1nc2ccccc2o1 (centres undefined)" measured_value="> 100 µM"
compound=COn1cc(CO)c2ccccc21 measured_value="> 100 µM"

Entry `CC1=C(C)C(=O)O[C@@H]([C@](C)(O)[C@]2(O)CC[C@@]3(O)[C@@H]4C[C@H]5O[C@]56CC=CC(=O)[C@]6(C)[C@H]4CC[C@]23C)C1` — recorded TGI = 2.8 µM

----------
- Test system: NCI-H522 lung
- PROCEDURE_TEXT: NCI tumour cell line growth inhibition, 48 h
ENDPOINT_NAME: GI50

Reported GI50 of `Clc1ccc(OCc2nnc3n2N=C(c2ccc(Cl)cc2Cl)CS3)c(Cl)c1` : 14.5 µM

Record `O=P(O)(O)C(O)(Cn1ccnc1)P(=O)(O)O` , field GI50: > 100 µM

Form: compound = `O=C1c2c(c3c4ccc(Br)cc4oc3c3[nH]c4ccccc4c23)C(=O)N1O` ; GI50 = 1.07 µM

Record summary for `COc1cc2c3c(n(CCCN4CCC(N)CC4)c(=O)c2cc1OC)-c1cc2c(cc1C3=O)OCO2` : reported GI50 = 3.4 µM

# GI50 (compound: `CNC(=O)c1cn(C[C@H](F)CCc2ccc(NC(=O)Cc3cc(OC4CC(F)(F)C4)cc(C)n3)nn2)nn1` ) is 5.18 µM

----------
- Tested on: IGROV1 ovarian
- PROCEDURE_TEXT: NCI tumour cell line growth inhibition, 48 h
ENDPOINT_NAME: TGI (µM)
Response body: numeric value in µM, unit text excluded.

Check out these entries, answers already filled in.
smiles_notation=CC(C)(C)OC(=O)c1ccc(NCc2cc(O)ccc2O)cc1 measured_value=5.47
smiles_notation=CCN(Cc1c(F)cccc1F)c1ccc(CO)c(Cl)c1 measured_value=0.193

`Nc1nc(Nc2ccc(OCc3cccc(F)c3)cc2)c2c(n1)[nH]c1ccc(O)cc12` yielded TGI of 14.7

----------
- Test system: CCRF-CEM leukemia
- PROCEDURE_TEXT: NCI tumour cell line growth inhibition, 48 h
Parameter TGI: see the listing below.

The cases that follow already have their TGI on record.
molecule=CNC(=O)c1cn(C[C@H](F)CCc2ccc(NC(=O)Cc3cc(OC4CC(F)(F)C4)cc(C)n3)nn2)nn1 endpoint_name=TGI measured_value="> 100 µM"
molecule="CC/C=C\\C/C=C\\C/C=C\\CCCCCCCC(=O)OC(COC(=O)CCCCCCCCCCCCCCCCC)COC1OC(CO)C(O)C(O)C1O (stereo not drawn)" endpoint_name=TGI measured_value="> 25 µM"
molecule=Cc1cccc(NC(Nc2cccc(C)c2)=C(C(Cl)=C(Cl)Cl)[N+](=O)[O-])c1 endpoint_name=TGI measured_value="> 100 µM"
molecule=CCOC(=O)c1c(NC(=S)Nc2ccc(C)cc2)sc2c1CCN(C)C2 endpoint_name=TGI measured_value="> 100 µM"
molecule=CN1CCN(C)C1c1cccc(C2N(C)CCN2C)c1 endpoint_name=TGI measured_value="> 100 µM"
molecule=O=C(Nc1ccc(S(=O)(=O)N[C@@H](C(=O)O)c2ccccc2)cc1)c1ccc(F)cc1 endpoint_name=TGI measured_value="> 100 µM"
molecule="COC(=O)C(CCCCNC(=O)CNC(=O)OCc1ccccc1)NC(=O)C(CCCCNC(=O)CNC(=O)OCc1ccccc1)NC(=O)OCc1ccccc1 (stereo not drawn)" endpoint_name=TGI measured_value="> 100 µM"
molecule=O=C1c2ccccc2-c2c1c1ccccc1c(=O)n2CCNCCCNCCn1c2c(c3ccccc3c1=O)C(=O)c1ccccc1-2 endpoint_name=TGI measured_value="1.43 µM"
molecule="CC1=Nc2c(ccc3c2C(=O)c2ccccc2C3=O)NC(c2ccncc2)C1 (stereo not drawn)" endpoint_name=TGI measured_value="> 100 µM"
molecule=CCCCCCNc1nc(NCCCCCC)c2[nH]c(NCCCCCC)nc2n1 endpoint_name=TGI measured_value="35.6 µM"

Form: molecule = `O=C(N/N=C/c1ccc(Cl)cc1Cl)c1ccccc1Nc1cccc(C(F)(F)F)c1` ; TGI = 19.3 µM

Lab note: measured TGI of `COn1cc(CO)c2ccccc21` was > 100 µM

The reported value for CCCCCC(C(O)C#N)C(O)(C(F)(F)F)C(F)(F)F (stereo not drawn) in terms of TGI is > 10 µM

Form field TGI, entry `CCCS(=O)(=O)c1nc(NC2CC2)cc(-c2ccc3c(ccn3C3CC(C)(C)NC(C)(C)C3)c2)n1` : 4.8 µM

The value of TGI measured for the molecule `CC1(C)CCc2cc3c(cc2O1)OCCC3=O` turned out to be > 100 µM

Lab note: measured TGI of Clc1cccc(C2ON=C(c3ccccc3)N2C23CC4CC(CC(C4)C2)C3)c1Cl (stereo not drawn) was > 10 µM

The molecule listed as `Cc1c(-c2nc(N)nc(C3CC3)c2C)nc(N)nc1C1CC1` shows TGI equal to > 100 µM

Reported TGI ( NC(CCSCC(F)F)C(=O)O (stereo not drawn) ) = > 100 µM

# molecule CCOC1NC(=O)c2ccccc21 (stereo not drawn) ; its TGI = > 100 µM

----------
The entries below are paired with their reported TGI.
- Tested on: EKVX NSCLC
- PROCEDURE_TEXT: NCI tumour cell line growth inhibition, 48 h
The response must be a number in µM with no trailing unit.

smiles_notation=C=CC(=O)N1CCN(c2ncnc3c(F)c(-c4c(O)cccc4F)c(Cl)cc23)CC1 endpoint_name=TGI value_units=µM measured_value=28.9

get_value(item= `Cc1ccc2c(c1)C(=O)/C(=C\c1ccc(Cl)cc1)CCS2(=O)=O` , readout=TGI) returns 25.3

Given item `O=C(N/N=C/c1ccc(Cl)cc1Cl)c1ccccc1Nc1cccc(C(F)(F)F)c1` , the value recorded as its TGI is 80.1

Note to self: TGI recorded for `NC(N)=N/N=C/c1c(-c2ccccn2)nc2sc(Cl)cn12` was 16.1

----------
- System: MDA-N
- PROCEDURE_TEXT: NCI tumour cell line growth inhibition, 48 h
ENDPOINT_NAME: TGI

Value of TGI reported for the molecule `CC(C)Cc1c(C#N)c(C#N)c(N)n1Cc1ccccc1` is > 100 µM

Sample `COc1ccc(/C(C)=N/NC(=S)N(C)C)c(O)c1` ; TGI observed: > 100 µM

----------
- Tested on: SNB-19 CNS
- PROCEDURE_TEXT: NCI tumour cell line growth inhibition, 48 h
Listed molecules paired with reported TGI

Lookup result for CCOC(=O)C(C)NC(=O)N(C)C12CC3CC(CC(C3)C1)C2 (stereo not drawn) ; measured TGI: > 500 µM

`COc1cc2c(cc1OCCCOc1cc3c(cc1OC)C(=O)N1CCC[C@H]1CN3)N=C[C@@H]1CCCN1C2=O` has a reported TGI of > 100 µM

Reported TGI ( `Brc1ccc2c(c1)-c1nc3c(cc1CC2)CCc1ccc(Br)cc1-3` ) = > 100 µM

The reported value for COc1ccc(N2C(=O)C3c4[nH]c5ccccc5c4C4C(C)CCCC4C3C2=O)cc1 (stereo not drawn) in terms of TGI is > 100 µM

Kindly note the recorded TGI for `NS(=O)(=O)c1nnc(NSc2ccc([N+](=O)[O-])cc2)s1` , which is > 100 µM

----------
- Tested on: T-47D breast
- PROCEDURE_TEXT: NCI tumour cell line growth inhibition, 48 h
ENDPOINT_NAME: TGI

The following compounds have reported results that may help.
compound=C(=N/Nc1ccc(-c2nc3ccccc3[nH]2)cc1)/c1c(-c2ccccc2)[nH]c2ccccc12 measured_value="> 100 µM"
compound="CC(=O)n1c(-c2ccc(Cl)cc2)nc2c(c1=O)C(c1ccc(Cl)cc1)c1sc3c(Cl)cccc3c1O2 (centres undefined)" measured_value="2.78 µM"
compound="COc1ccc(N2C(=O)C3c4[nH]c5ccccc5c4C4C(C)CCCC4C3C2=O)cc1 (centres undefined)" measured_value="> 100 µM"
compound=CCc1cc(=O)n(/C(C)=C/c2ccccc2)n1C measured_value="> 100 µM"
compound=CCN(CC(=O)O)CC(=O)O measured_value="> 100 µM"

As a next step, examine the compound that follows.
Noted for `COc1ccc(-c2cc(-c3cc(Cl)ccc3Cl)nc3nc(=S)[nH]c(N)c23)cc1` : its TGI reads > 100 µM
